This document collects MIC values reported for C. albicans ATCC 90028.
measurementName: MIC

>>> df
                                   compound  measurementname   obsvalue
0  COc1ccc(/C=C/C(=O)NCCCNCCCCCCNCCCNC(=O)/C=C/c2ccc(OC)cc2)cc1.O=C(O)C(F)(F)F.O=C(O)C(F)(F)F [Compound 14b]              MIC  > 41.1 µM
1  COc1ccc(/C=C/C(=O)NCCCNCCCCNCCCNC(=O)/C=C/c2ccc(OC)cc2)cc1.O=C(O)C(F)(F)F.O=C(O)C(F)(F)F [Compound 14a]              MIC  > 42.6 µM
2  OC(Cn1cncn1)(Cn1cncn1)c1ccc(F)cc1F [fluconazole, reference compound]              MIC     0.4 µM
3  COc1ccc(/C=C/C(=O)NCCCNCCCCCCNCCCNC(=O)/C=C/c2ccc(OC)c(Br)c2)cc1Br.O=C(O)C(F)(F)F.O=C(O)C(F)(F)F [Compound 15b]              MIC  > 34.1 µM
4  O=C(C=Cc1ccccc1)NCCCNCCCCCCCCNCCCNC(=O)C=Cc1ccccc1.O=C(O)C(F)(F)F.O=C(O)C(F)(F)F [Compound 13d]              MIC  > 42.8 µM
5  COc1ccc(/C=C/C(=O)NCCCNCCCCCCCCCCNCCCNC(=O)/C=C/c2ccc(OC)c(Br)c2)cc1Br.O=C(O)C(F)(F)F.O=C(O)C(F)(F)F [Compound 15e]              MIC    32.2 µM
6  COc1ccc(/C=C/C(=O)NCCCNCCCCCCCCCCNCCCNC(=O)/C=C/c2ccc(OC)cc2)cc1.O=C(O)C(F)(F)F.O=C(O)C(F)(F)F [Compound 14e]              MIC    38.3 µM
7  COc1ccc(/C=C/C(=O)NCCCNCCCCCCCNCCCNC(=O)/C=C/c2ccc(OC)cc2)cc1.O=C(O)C(F)(F)F.O=C(O)C(F)(F)F [Compound 14c]              MIC  > 40.4 µM
